Data origin: patent US4434290A

- Test system: cells of viro-induced leukemia of Friend
- assay procedure: In vitro cytotoxic study on cells of the Friend leukemia of the mouse (Table XV)
- Format: cell-based
- test context: Mus musculus, 24 h, read-out: LD 100 (100% lethal dose)
Decide using IC100: a value greater than or equal to 0.7 µM is satisfied, a smaller one is not satisfied.

>>> answer_label("COc1ccc2[nH]c3c(C)c4ccnc(NCCCCCCN)c4cc3c2c1")
"satisfied"
>>> answer_label("COc1ccc2[nH]c3c(C)c4ccnc(NCCN(C)C)c4cc3c2c1")
"satisfied"
>>> answer_label("CCN(CC)CCCNc1nccc2c(C)c3[nH]c4ccc(O)cc4c3cc12")
"not satisfied"
>>> answer_label("COc1ccc2[nH]c3c(C)c4ccnc(NCCN)c4cc3c2c1")
"not satisfied"
>>> answer_label("CCN(CC)CCCNc1nccc2c(C)c3[nH]c4ccc(OC)cc4c3c(C)c12")
"satisfied"
>>> answer_label("COc1ccc2[nH]c3c(C)c4ccnc(NCCCN(C)C)c4c(C)c3c2c1")
"satisfied"
>>> answer_label("COc1ccc2[nH]c3c(C)c4ccnc(NCCCCN)c4cc3c2c1")
"satisfied"
